Measured values drawn from ChEMBL document CHEMBL1126959 for this set.

Target: 3-hydroxy-3-methylglutaryl-coenzyme A reductase (Rattus norvegicus, UniProt P51639)
Assay: Inhibitory activity against partially purified rat liver HMG-CoA reductase in vitro; 4.1-22
measure-name: pIC50
Please note pIC50 is a logarithmic value: minus log10 of concentration in mol/L. Answer with that number alone.

Query: Quick one: pIC50 of `O=C(O)C[C@H](O)C[C@H](O)/C=C/c1c2c(nn1-c1ccc(F)cc1)-c1ccccc1CC2` ?
Response: 5.03

* * *

Target: 3-hydroxy-3-methylglutaryl-coenzyme A reductase (Rattus norvegicus)
Assay: Inhibitory activity against partially purified rat liver HMG-CoA reductase in vitro; 2.6-4.8
measure-name: IC50 (µM)
Expressed in µM, but write only the number.

Query: Any idea what IC50 was measured for `O=C(O)C[C@H](O)C[C@H](O)/C=C/c1c2c(nn1-c1ccc(F)cc1)CCCCC2` ?
Response: 3.6

* * *

Target: 3-hydroxy-3-methylglutaryl-coenzyme A reductase (Rattus norvegicus, UniProt P51639)
Experiment: Inhibitory activity against partially purified rat liver HMG-CoA reductase in vitro; 0.047-0.098
measure-name: pIC50
Convention used: pIC50 is expressed as -log10 of the molar concentration.

Query: Query (compound): O=C(O)C[C@H](O)C[C@H](O)/C=C/c1c2c(nn1-c1ccc(F)cc1)C(Cc1ccccc1)CCC2 (stereo partly specified) ; field requested: pIC50
Response: 7.17

* * *

Biological target: 3-hydroxy-3-methylglutaryl-coenzyme A reductase (Rattus norvegicus, UniProt P51639)
Experiment: Inhibitory activity against partially purified rat liver HMG-CoA reductase in vitro; 0.41-0.73
measure-name: IC50 (nM)
Answer in nM, number only, no unit symbol.

Query: Please give the measured IC50 for this compound: O=C(O)C[C@H](O)C[C@H](O)/C=C/c1c2c(nn1-c1ccc(F)cc1)C(CCc1ccccc1)CCC2 (stereo partly specified)
Response: 540

* * *

Tested on: HepG2
Test: Tested for ability to inhibit incorporation of [14C]acetate into cholesterol in cultured human hepatoma (HEP-G2) cells; 0.22-0.48
Format: functional, cell-based
measure-name: pIC50
API: returns pIC50 as number; meaning -log10 of concentration in mol/L.

Query: Reported pIC50, compound O=C(O)C[C@H](O)C[C@H](O)/C=C/c1c2c(nn1-c1ccc(F)cc1)C(Cc1ccc3ccccc3c1)CCC2 (stereo partly specified) : ____
Response: 6.48

* * *

Tested on: HepG2
Assay: Tested for ability to inhibit incorporation of [14C]acetate into cholesterol in cultured human hepatoma (HEP-G2) cells; 0.0071-23
Assay type: functional, cell-based
measure-name: pIC50
Please note pIC50 is a logarithmic value: minus log10 of concentration in mol/L. Answer with that number alone.

Query: // lookup pIC50 for O=C(O)C[C@H](O)C[C@H](O)/C=C/c1c2c(nn1-c1ccc(F)cc1)C(Cc1ccc(F)cc1)CCC2 (stereo partly specified)
Response: 6.40

* * *

Biological target: 3-hydroxy-3-methylglutaryl-coenzyme A reductase (Rattus norvegicus, UniProt P51639)
Sequence (P51639 whole entry): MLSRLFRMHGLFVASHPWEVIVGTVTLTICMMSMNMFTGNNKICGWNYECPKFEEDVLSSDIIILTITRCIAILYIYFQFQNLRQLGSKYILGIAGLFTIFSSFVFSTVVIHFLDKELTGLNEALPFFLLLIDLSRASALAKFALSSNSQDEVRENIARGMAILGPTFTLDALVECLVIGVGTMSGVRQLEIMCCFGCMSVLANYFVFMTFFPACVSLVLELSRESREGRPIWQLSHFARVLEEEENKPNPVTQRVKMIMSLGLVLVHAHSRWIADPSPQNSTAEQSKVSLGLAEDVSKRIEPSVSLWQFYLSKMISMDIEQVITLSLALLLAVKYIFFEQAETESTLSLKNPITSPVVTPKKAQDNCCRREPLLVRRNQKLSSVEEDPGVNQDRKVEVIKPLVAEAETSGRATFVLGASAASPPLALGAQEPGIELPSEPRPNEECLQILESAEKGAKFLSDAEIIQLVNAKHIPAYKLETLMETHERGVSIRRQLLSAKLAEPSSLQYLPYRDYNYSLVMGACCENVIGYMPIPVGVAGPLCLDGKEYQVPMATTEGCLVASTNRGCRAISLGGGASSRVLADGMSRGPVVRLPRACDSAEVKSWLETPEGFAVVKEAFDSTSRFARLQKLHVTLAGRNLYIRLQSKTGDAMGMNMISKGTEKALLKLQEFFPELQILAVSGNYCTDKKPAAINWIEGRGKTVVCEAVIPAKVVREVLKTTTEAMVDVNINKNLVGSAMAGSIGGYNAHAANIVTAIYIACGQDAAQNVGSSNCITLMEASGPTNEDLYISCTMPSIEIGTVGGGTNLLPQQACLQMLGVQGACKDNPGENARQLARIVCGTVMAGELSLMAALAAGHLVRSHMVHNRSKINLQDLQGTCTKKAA
Experiment: Inhibitory activity against partially purified rat liver HMG-CoA reductase in vitro; 0.12-0.21
measure-name: pIC50
pIC50 is a log-scale quantity: -log10 of the concentration expressed in molar.

Query: Item under review: O=C(O)C[C@H](O)C[C@H](O)/C=C/c1c2c(nn1-c1ccc(F)cc1)C(CCCc1ccccc1)CCC2 (stereo partly specified) . Reported pIC50?
Response: 6.80
